Origin of values: the nanobody polyreactivity screen of Harvey et al. (2022)

assay: yeast display, Sf9 membrane polyspecificity reagent, FACS + sequencing; frameworks hold sequencing errors
assay.readout: polyreactivity (PSR sort gate)

// worked examples, polyreactivity (PSR sort gate) included
1. QVQLVESGGGLVQAGGSLRLSCAASGSNFDFYAMGWYRQAPGKERELVAAISSSGTSTYYADSVKGRFTISRDNAKNTVYLQMNSLKPEDTAVYYCAAVYSRSGYTWREYGYWGQGTQVTVSS | low polyreactivity
2. QVQLVESGGGLVQAGGSLRLRCAASGRTFGQNAMGLYRQAPGKEREFVAAISSSGGSTYYADSVKGRFTISRDNAKNTVYLQMNSLKPEDTAVYYCNARQYYYRSGAYASRYLYNYWGQGTQVTVSS | high polyreactivity
3. QVQLVESGGGLVQAGGSLRLSCAASGRTIASYAMGWYRQAPGKERELVAAITSGGSTYYADSVKGRFTISRDNAKNTVYLQMNSLKPEDTAVYYCAAYVRPAYYAIHVDYWGQGTQVTVSS | low polyreactivity
4. QVQLVESGGGLVQAGGSLRLSCAASGRIFKIYAMGWYRQAPGKERELVAAISGRGGSTYYADSVKGRFTISRDNAKNTVYLQMNSLKPEDTAVYYCAAVGYGFSAYSTYDYWGQGTQVTVSS | high polyreactivity
5. QVQLVDSGGGLVQAGGILRLSCAASGSTFDVYAIGWYRQAPGKEWELVAAITWDGDRTYYADSVKGRFTISRDNAKNTVYLQMNSLKPEDTGVYYCNADEGGNYREDYWGQGTQVTVSS | low polyreactivity

Now consider a different sequence.
**Query** What measured polyreactivity (PSR sort gate) goes with QVQLVESGGGLVQAGGSLRLSCAPSGRTFRYYAMGWYRQAPGKERELVAAINWSGGSTYYADSVKGRFSISRDNAKNAVYLQKNSLKPEDTAVYYCAADEKMYITGYDYWGQGTQVTVSS ?
**Result** low polyreactivity

* * *

assay: yeast display, Sf9 membrane polyspecificity reagent, FACS + sequencing; frameworks hold sequencing errors
assay.readout: polyreactivity (PSR sort gate)

1. QVQLVESGGGLVQAGGSLRLSCAASGSTFAVYTMGWYRQAPGKERELSTSYADSVKGRFTISRDNAKNTVYLQMNSLKPEDTAVYYCNRDFYEFDSNSYRFDYWGQGTQVTVSS | low polyreactivity
2. QVQLVESGRGIVQAGGSLRLSCAASGIIFGGNAMVWYRQAPGKERELVARIRWGGGSTYYADSVKGRFTISRDNAKNTVYLQMNSLKPEDTAVYYCARTTSYLTSTRRYYYWGQGTQVTVSS | high polyreactivity
3. QVQLVESGGGLVQAGGSLRLSCAASGSTFTIYAYGWYRQAPGKERELVAAITRGGGRTYYADSVKGRFTISRDNAKNTVFLQMNSLKPEVTAVYYCAAYYAHEFDYRGQGTQVTVSS | high polyreactivity
4. QVQLVESGGGLVQAGGSLRLSCAASGITLFYYAMGWYRQAPGKERELVAAISWSGGSTYYADSVKGRFTISRDNAKNTDDLQMNSLKPEDTAVYYCNRVSRAPFDYWGQATQVTVSS | high polyreactivity
5. QVQLVESGGSLVQAGGSLRLSCDASVLTFPVYAMGWYRQAPGKEREFVASISGRGASTYYADSVKGRFTISRDNAKNTVYLQMNSLIPEDTAVYYCNADVWLLSYFPEYDYWGQGNQVTVSS | low polyreactivity

**Query** What measured polyreactivity (PSR sort gate) goes with QVQLVESGGGLVQAGGSLRLSCAASGRTFSLYAMGWYRQAPGNDRELVAAISYNGGRTYYADSVKGRFTISRDNAKNTVYLQLNCLKQDDTAVYYCAADHGDPGGYDYWGQGTQVTVSS ?
**Result** high polyreactivity

**Query** Next record, please: QVQLVESGGGLVQAGGSLRLSCAASGRIFSRYAMGWYRQAPGKERELVAAITRGGSTYYADSVKGRFTISRDNAKNTVYLQMNSLKPEDTAVYYCAKDGYRPDDYGYWGQGTQVTVSS
**Result** high polyreactivity

**Query** Next record, please: QVQLVETGGGLVQAGGSLRLSCAASGNTFQRYTMGWYRQAPGNERELVAAITWSGGNTYYADSVKGRFTISRDNAKNTVYLQMNSLKPVDTAVYYCNADYPTTAYDYWGQGTQVSVSS
**Result** low polyreactivity

**Query** Next record, please: QVQRVESGGGLVQAGGSLRLSCAASGRTFDGYAMGWYRQAPGKDRELVAAISKRGGSTYYADSVKGRFTISRDNAKNTVYLQMHSLKPEDTAVYYCNTRYFGDQTWVGGDSWGQGTQVTVSS
**Result** high polyreactivity

**Query** Next record, please: QVQLVESGGGLVQAGGSLRLSCAASGSIFEYYAMGWYRQAPGKERELVADITTIGGSTYYADSVKGRFTISRDNAKNTVYLQMNSLKPEDTAVYYCAADYFTTFYWYDYWGQGTQVTVSS
**Result** high polyreactivity

**Query** Next record, please: QVQLVESGGGLVQAGGSLRLSCAATGYTLYYNAMGWYIQAPGKERELVAAITSGGSTSYADSVKGRFTISRDNAKNTVYLQMNRLIPEDTAVYYCAAVFYRRFDYWGQGTQVTVSS
**Result** low polyreactivity

**Query** Next record, please: QVQLVESGGGLVQAGGSLRLSCAASGSIYVKGWYRQAPGKERELVAAISTNGGRTYYADSVKGRFTISRDNAKITVYLQLTSLKPEDTAVYYCAVRTTPKTRRFYYWGQGTQVTVSS
**Result** high polyreactivity

**Query** Next record, please: QVQLVESGGGLVQAGGSLRFSCAASGSTFGTYAMGWYRQAPGKERELVAAISWSGGSTYYADSVKGRFTISRDNAKNTVYLQMNSLKPEDPAVYWGQGTQVTVSS
**Result** low polyreactivity

* * *

assay: yeast display, Sf9 membrane polyspecificity reagent, FACS + sequencing; frameworks hold sequencing errors
assay.readout: polyreactivity (PSR sort gate)

// worked examples, polyreactivity (PSR sort gate) included
1) QVQLVESGGGLVQAGGSLRLSCAASGLIFSSNAMGWYRQAPGKERELVAAISRRGANTYYADSVKGRFTISRDNAKNTVYLQMNSLKPQDTAVYYCAKRYVGRGTSYQDYYWGQGTQVTVSS | high polyreactivity
2) QVQLVESGGGLVQAGGSLRLSCAASGFTFYRYAMGWYRQAPGKERELVAAISSTGDRTYYADSVKGRFTISRDNAKNTVYLQMNSLKPEDTAVYYCAAPYQNQVEFNYWGQGTQVTVSS | high polyreactivity
3) QVQLVESGGGLVQAGGSLRLSCAASVFNFIYYTMGWYRPAPGKERELVAAISWSGGGTYYADSVKGRFTISRDNAKNTVYLLMNRLKPEDTAVYYCAAYWYVSSRDFEYWGQGTQVTVSS | high polyreactivity
4) QVQLVESGGGLVQAGGSLRLSCAASGFTFWVYAMGWYRQATGKEREFVASISWTGDTTYYADSVKGRFTISRDNAKNTVYLQMNSLKPEDTAVYYCAVDTILGYDYWGQGTQVTVSS | low polyreactivity
5) QVQLVESGGGLVQAGGSLRLSCAASGSIFVLYAMGWYRQAPGKERELVAAISRGVGGTNYADSVKGRFTISRDNAKNTVYLQMNSLKPEDTAVYYCAAQTLRWSHYYYWGQGTQVTVSS | high polyreactivity
6) QVQLVESGGGLVQAGGSLRLSCAASGFTFPYYAMGWYRPAPGKERELVAAISWIGDSTYYADSVKGRFTISRDNAKNTVYLQMNSLKPEDTAVYYCAAGYKWSIPNRDYDYWGQGTQVTVSS | low polyreactivity
7) QDQRVESGGGLVQAGGSLRLSCAASVRTVNFNVMGWYSQARGKERELVAAISKSTGSTFYADSVKGRFTMSRDNAKNTGYLQKNSLKPEDTAVYYCIAVRCYGSGRGYGYCGQGTQVTVSS | high polyreactivity
8) QVQLVESGGGLVQAGGSLRLSCAASGSTFYGYAMGWYRQAPGKERELVAGITSAGSTYYADSVKGRFTISRDNAKNTVYLQMNSLKPEDTAVYYCAYHGAGYYYWGQGTQVTVSS | high polyreactivity

**Query** What measured polyreactivity (PSR sort gate) goes with QDQLVESAGGLVQAGGSLRLSCAASGSIFTSNAMGWYRQAPGKETELVAAITSSGGSTYYADSVKGRFTISRDNAKNTVYVQMNSLKPEVTAVYYCAGAKFDLSFWLYYWGQGTQVTVSS ?
**Result** low polyreactivity

**Query** Next record, please: QVQLVESGGGLVQAGGILRLSCAASGRIFTSNPMGWYRQAPGKEREFVAAISGSGDGTYYADSVKGRFTISRDTAKNTVYLQMNSLKPEDTAVYYCAARRRGTYPYPMGYWGQGTQVTVSS
**Result** high polyreactivity

**Query** Next record, please: QVQLVESGGGLVQAGGSLRLSCAASGSTFYTNAMGWYRQAPGKERELVAAISASVGSTYYADSVKGRFTISRDNAKNTVYLQMNSLKPEDTAVYYCAAQYTYLLFASLPDYDYWGQGTQVTVSS
**Result** low polyreactivity
